Measured values drawn from patent US7728146B2 for this set.

Reported Selectivity DP9(IC50)/DPIV(Ki) values for the following molecules.
target-or-test-system: DP9 (Homo sapiens, UniProt Q86TI2)
Sequence (Q86TI2 whole entry, species assumed): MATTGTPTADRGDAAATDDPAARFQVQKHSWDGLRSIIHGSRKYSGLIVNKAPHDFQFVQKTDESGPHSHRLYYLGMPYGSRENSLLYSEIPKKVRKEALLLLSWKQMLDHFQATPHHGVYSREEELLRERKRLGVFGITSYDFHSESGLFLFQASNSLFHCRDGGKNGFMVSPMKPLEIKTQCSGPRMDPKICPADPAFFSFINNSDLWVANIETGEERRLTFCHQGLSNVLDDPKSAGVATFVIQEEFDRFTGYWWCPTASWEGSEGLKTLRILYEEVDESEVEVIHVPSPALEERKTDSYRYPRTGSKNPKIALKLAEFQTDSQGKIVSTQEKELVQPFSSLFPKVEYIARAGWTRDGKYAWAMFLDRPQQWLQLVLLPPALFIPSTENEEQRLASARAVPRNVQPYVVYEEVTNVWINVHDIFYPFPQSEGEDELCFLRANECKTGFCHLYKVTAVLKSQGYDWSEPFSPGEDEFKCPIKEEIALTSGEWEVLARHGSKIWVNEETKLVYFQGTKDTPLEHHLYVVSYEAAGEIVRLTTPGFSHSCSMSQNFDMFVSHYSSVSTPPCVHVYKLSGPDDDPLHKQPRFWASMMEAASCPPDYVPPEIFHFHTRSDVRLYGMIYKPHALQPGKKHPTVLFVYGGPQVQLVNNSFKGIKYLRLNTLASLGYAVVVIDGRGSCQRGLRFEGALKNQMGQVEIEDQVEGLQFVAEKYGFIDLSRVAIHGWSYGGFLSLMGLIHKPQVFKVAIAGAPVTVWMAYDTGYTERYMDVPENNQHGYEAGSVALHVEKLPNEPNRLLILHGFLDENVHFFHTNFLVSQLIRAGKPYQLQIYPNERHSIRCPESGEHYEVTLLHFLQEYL
assay-details: DP9 assay
Type: biochemical
run-conditions: ratio IC50 DP9 / Ki DP IV

Observe how each entry below is paired with its result.
1) NCc1c(-c2ccc(Cl)cc2Cl)ncn1CCc1ccccc1Cl [Example 21b] : 44
2) NCc1c(-c2ccc(Cl)cc2Cl)ncn1Cc1ccccc1F [Example 112b] : 9,714
3) NCc1c(-c2ccc(Cl)cc2Cl)ncn1Cc1ccccn1 [Example 39b] : 20,951

IN: Query (molecule): CC(C)(C)CCn1cnc(-c2ccc(Cl)cc2Cl)c1CN [Example 23b] ; field requested: Selectivity DP9(IC50)/DPIV(Ki)
OUT: 2,377

IN: Query (molecule): COc1cccc(Cn2cnc(-c3ccc(Cl)cc3Cl)c2CN)c1 [Example 59b] ; field requested: Selectivity DP9(IC50)/DPIV(Ki)
OUT: 7,974

IN: Query (molecule): NCc1c(-c2ccc(Cl)cc2Cl)ncn1Cc1ccccc1OC(F)(F)F [Example 129b] ; field requested: Selectivity DP9(IC50)/DPIV(Ki)
OUT: 8,135

====

assay-details: Bioavailability studies (pharmacokinetics after oral and intraarterial administration)
Format: in vivo, rat
run-conditions: Wistar (Crl:WI), rat, plasma; male Wistar rats, oral 3 mg/kg, hydrochloride salt, Mean ± SD; N = 5
Description: Male Wistar rats (N=25; Crl:WI) with a body weight ranging between 300 and 350 g were purchased from Harlan Winkelmann GmbH (Borchen, Germany). All studycompounds were used in the form of the hydrochloride salt. […] Plasma levels of the DP IV inhibitors were determined by measurement of plasma DP IV activity under standardized conditions using Gly-Pro-pNA as substrate. […] F (in %) was calculated from the ratio of observed AUC upon oral route of administration to the AUC upon intraarterial administration.
Reported Cmax values for the following compounds.
Numeric only. Scale: ng/mL

1. NCc1c(-c2ccc(Cl)cc2Cl)ncn1Cc1cccnc1 [Example 121b] : 110
2. NCc1c(-c2ccc(Cl)cc2Cl)ncn1Cc1ccccn1 [Example 39b] : 80
3. NCc1c(-c2ccc(Cl)cc2Cl)ncn1Cc1ccccc1 [Example 24b] : 130

Then there is this compound:
IN: Query (compound): NCc1c(-c2ccc(Cl)cc2Cl)ncn1Cc1ccsc1 [Example 130b] ; field requested: Cmax
OUT: 300

====

target-or-test-system: DPII (Homo sapiens, UniProt Q9UHL4)
assay-details: DPII assay
Type: biochemical
run-conditions: sodium acetate buffer pH 5.5, Gly-Pro-AMC 1 mM
Reported pIC50 values for the following compounds.
Please note pIC50 is a logarithmic value: minus log10 of concentration in mol/L. Answer with that number alone.

Observe how each entry below is paired with its result.
1) COc1ccccc1Cn1cnc(-c2ccc(Cl)cc2Cl)c1CN [Example 120b] : 4.73
2) CCOc1ccccc1Cn1cnc(-c2ccc(Cl)cc2Cl)c1CN [Example 128b] : 5.47
3) NCc1c(-c2ccc(Cl)cc2Cl)ncn1Cc1ccsc1 [Example 130b] : 5.84
4) NCc1c(-c2ccc(Cl)cc2Cl)ncn1CCc1ccccc1Cl [Example 21b] : 5.34
5) COc1cccc(Cn2cnc(-c3ccc(Cl)cc3Cl)c2CN)c1 [Example 59b] : 4.41

IN: Query (compound): NCc1c(-c2ccc(Cl)cc2Cl)ncn1CCCCCO [Example 38b] ; field requested: pIC50
OUT: 4.22

IN: Query (compound): NCc1c(-c2ccc(Cl)cc2Cl)ncn1Cc1ccccc1 [Example 24b] ; field requested: pIC50
OUT: 4.52

IN: Query (compound): NCc1c(-c2ccc(Cl)cc2Cl)ncn1Cc1ccccc1OC(F)(F)F [Example 129b] ; field requested: pIC50
OUT: 5.81

IN: Query (compound): NCc1c(-c2ccc(Cl)cc2Cl)ncn1C(CO)c1ccccc1 (stereo not shown) [Example 126b] ; field requested: pIC50
OUT: 4.70

====

target-or-test-system: DPII (Homo sapiens, UniProt Q9UHL4)
Label true when Ki is strictly below 4 µM; at or above that, label false.

Example entries begin here.
1. NCc1c(-c2ccc(Cl)cc2Cl)ncn1CCc1ccccc1Cl [Example 21b] : true
2. NCc1c(-c2ccc(Cl)cc2Cl)ncn1Cc1ccsc1 [Example 130b] : true
3. NCc1c(-c2ccc(Cl)cc2Cl)ncn1Cc1ccccc1Cl [Example 81b] : true
4. NCc1c(-c2ccc(Cl)cc2Cl)ncn1Cc1ccccc1OC(F)(F)F [Example 129b] : false

IN: Is Ki strictly under 4 µM for the entry CCOc1ccccc1Cn1cnc(-c2ccc(Cl)cc2Cl)c1CN [Example 128b] ?
OUT: true

====

target-or-test-system: DP IV (Homo sapiens, UniProt P27487)
assay-details: DP IV inhibition IC50, parallel-synthesis compounds tested directly following synthesis (without purification)
Format: biochemical
Set-up: IC50 DP4; other: tested directly following parallel synthesis, without purification; compounds of formula (Ib) from parallel synthesis, tested directly following synthesis
run-conditions: DP IV inhibition; compounds of formula (Ib) from parallel synthesis, tested directly following synthesis (without purification); read-out: IC50
Label fulfilled when IC50 is strictly below 20 µM; at or above that, label not fulfilled.

Example entries begin here.
1. COc1ccc(Cn2cnc(-c3ccc(Cl)cc3Cl)c2C(C)N)cc1 (stereo not drawn) [43b] : not fulfilled
2. NCc1c(-c2ccc(Cl)cc2Cl)ncn1Cc1ccc(F)c(F)c1 [Example 92b] : fulfilled
3. CC(N)c1c(-c2ccc(Cl)cc2Cl)ncn1CCc1ccccc1Cl (stereo not drawn) [63b] : fulfilled
4. NCc1c(-c2ccc(Cl)cc2Cl)ncn1CCOc1ccccc1 [100b] : not fulfilled
5. CCCCCn1cnc(-c2ccc(Cl)cc2Cl)c1C(C)N (stereo not drawn) [115b] : not fulfilled
6. CCCCCCn1cnc(-c2ccc(Cl)cc2Cl)c1C(C)N (stereo not drawn) [61b] : not fulfilled
7. CC(N)c1c(-c2ccc(Cl)cc2Cl)ncn1Cc1ccccc1Cl (stereo not drawn) [67b] : not fulfilled
8. NCc1c(-c2ccc(Cl)cc2Cl)ncn1CCOCCO [18b] : not fulfilled

IN: Is IC50 strictly under 20 µM for the entry NCc1c(-c2ccc(Cl)cc2Cl)ncn1CCNc1ccc([N+](=O)[O-])cn1 [20b] ?
OUT: fulfilled

IN: Is IC50 strictly under 20 µM for the entry COc1ccccc1Cn1cnc(-c2ccc(Cl)cc2Cl)c1C(C)N (stereo not drawn) [80b] ?
OUT: fulfilled

IN: Is IC50 strictly under 20 µM for the entry NCc1c(-c2ccc(Cl)cc2Cl)ncn1CC12CC3CC(CC(C3)C1)C2 [Example 14b] ?
OUT: fulfilled

IN: Is IC50 strictly under 20 µM for the entry NCc1c(-c2ccc(Cl)cc2Cl)ncn1Cc1ccc(F)cc1F [Example 54b] ?
OUT: fulfilled

IN: Is IC50 strictly under 20 µM for the entry NCc1c(-c2ccc(Cl)cc2Cl)ncn1Cc1c(F)cccc1F [40b] ?
OUT: fulfilled

IN: Is IC50 strictly under 20 µM for the entry C[C@H](N)c1c(-c2ccc(Cl)cc2Cl)ncn1CCc1c[nH]c2ccccc12 [103b] ?
OUT: not fulfilled

IN: Is IC50 strictly under 20 µM for the entry NCc1c(-c2ccc(Cl)cc2Cl)ncn1CCCO [47b] ?
OUT: fulfilled

IN: Is IC50 strictly under 20 µM for the entry NCc1c(-c2ccc(Cl)cc2Cl)ncn1Cc1cccc(F)c1 [Example 28b] ?
OUT: fulfilled

IN: Is IC50 strictly under 20 µM for the entry CC(N)c1c(-c2ccc(Cl)cc2Cl)ncn1CCN1CCOCC1 (stereo not drawn) [118b] ?
OUT: not fulfilled

IN: Is IC50 strictly under 20 µM for the entry CC(N)c1c(-c2ccc(Cl)cc2Cl)ncn1Cc1cccnc1 (stereo not drawn) [78b] ?
OUT: not fulfilled

IN: Is IC50 strictly under 20 µM for the entry NCc1c(-c2ccc(Cl)cc2Cl)ncn1CCc1ccc(Br)cc1 [49b] ?
OUT: fulfilled

IN: Is IC50 strictly under 20 µM for the entry COCCn1cnc(-c2ccc(Cl)cc2Cl)c1CN [60b] ?
OUT: not fulfilled

IN: Is IC50 strictly under 20 µM for the entry NCc1c(-c2ccc(Cl)cc2Cl)ncn1Cc1c(F)cccc1Cl [123b] ?
OUT: fulfilled

IN: Is IC50 strictly under 20 µM for the entry NCc1c(-c2ccc(Cl)cc2Cl)ncn1Cc1ccncc1 [94b] ?
OUT: fulfilled

IN: Is IC50 strictly under 20 µM for the entry NCc1c(-c2ccc(Cl)cc2Cl)ncn1Cc1ccccc1Cl [Example 81b] ?
OUT: fulfilled

IN: Is IC50 strictly under 20 µM for the entry NCc1c(-c2ccc(Cl)cc2Cl)ncn1CCCCc1ccccc1 [42b] ?
OUT: fulfilled

IN: Is IC50 strictly under 20 µM for the entry COc1ccc(Cn2cnc(-c3ccc(Cl)cc3Cl)c2[C@H](C)N)c(OC)c1 [62b] ?
OUT: fulfilled

IN: Is IC50 strictly under 20 µM for the entry NCc1c(-c2ccc(Cl)cc2Cl)ncn1CCCNC1CCCCC1 [19b] ?
OUT: not fulfilled

IN: Is IC50 strictly under 20 µM for the entry CC(C)(C)Cn1cnc(-c2ccc(Cl)cc2Cl)c1CN [Example 11b] ?
OUT: fulfilled

IN: Is IC50 strictly under 20 µM for the entry NCc1c(-c2ccc(Cl)cc2Cl)ncn1CCc1ccccc1F [83b] ?
OUT: fulfilled
